system: ATP; experiment: switch fluorescence ratio, 500 uM ATP over buffer (Cy3 cluster intensity, sum of 5 cycles each) (fold (ratio)); higher = stronger signal-on switching upon ATP binding; sequences stand for … in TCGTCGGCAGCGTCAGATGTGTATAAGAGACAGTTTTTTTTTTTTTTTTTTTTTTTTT…TC; settings: aptamer strand: ATP DNA aptamer (quencher-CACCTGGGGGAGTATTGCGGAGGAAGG + anchor), 100 nM annealed; ATP concentration: 500 uM;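 note: ATP exposure 15 min at 22 °C before imaging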
quantity-measured: switch fluorescence ratio

* TGTAAAAACG | 1.01
* TGGGAGGGGG | 0.991
* GGGGCGCAGG | 0.993
* GACGGGGAGG | 0.999
* GATGGGTATA | 1
* TCTGGTAGTG | 1.03
* TATACGGCAC | 2.04
* CGGTATGTGA | 0.985
* GCCCTGGTGT | 5.93
* GGCTGGGGGT | 1.1

----------
Quick reference for switch fluorescence ratio among some sequences
test system: ATP; assay: switch fluorescence ratio, 500 uM ATP over buffer (Cy3 cluster intensity, sum of 5 cycles each) (fold (ratio)); higher = stronger signal-on switching upon ATP binding; sequences stand for … in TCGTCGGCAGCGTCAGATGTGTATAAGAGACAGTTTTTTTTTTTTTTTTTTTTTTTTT…TC; details: aptamer strand: ATP DNA aptamer (quencher-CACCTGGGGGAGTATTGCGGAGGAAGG + anchor), 100 nM annealed; ATP concentration: 500 uM;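 note: ATP exposure 15 min at 22 °C before imaging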
quantity-measured: switch fluorescence ratio

* TAGATGGGTC | 1.01
* GAAGGTATGT | 0.966
* ATATTGATTA | 1.02
* TTCAATTGTT | 1.02
* GCCCGGGAGC | 1
* GGAGCAAAGG | 2.63
* TTTGGGAACT | 1
* CCAAGGACAC | 1.15
* GCTACCGGTG | 1.1
* GATGGGTATG | 0.995
* GACCGAGCGT | 1.1
* TAAAGTTATT | 1.01
* GATAGACTTT | 1.02
* TTGGTTAAGA | 0.999
* ATCCCTAAAA | 1.02
* TAATCAATAT | 1.01
* TTCGGGTGCT | 1.08
* TTTGACGGTT | 1.03
* CCACAGGGTG | 4.53
* AAAAGGCCGG | 1.05

----------
system: ATP; assay: switch fluorescence ratio, 500 uM ATP over buffer (Cy3 cluster intensity, sum of 5 cycles each) (fold (ratio)); higher = stronger signal-on switching upon ATP binding; sequences stand for … in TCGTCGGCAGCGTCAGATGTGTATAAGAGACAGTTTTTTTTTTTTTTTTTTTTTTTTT…TC; settings: aptamer strand: ATP DNA aptamer (quencher-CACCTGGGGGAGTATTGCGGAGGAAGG + anchor), 100 nM annealed; ATP concentration: 500 uM;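 note: ATP exposure 15 min at 22 °C before imaging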
quantity-measured: switch fluorescence ratio

* GGGCTCCATG | 0.983
* AGGTTAAGGA | 1.04
* ATCGTGTGTG | 0.991
* TGCGTAGGGT | 0.967
* TTCAGATTGC | 0.987
* ACCCGAGCAC | 2.13
* CCGGTATGGT | 1.01
* GAGGTCGTAA | 1.05
* TGTATTCGGG | 0.978
* GCGTGGGTTG | 0.998
* AGTTATCTTA | 1.02
* CCAGTTTGCA | 1.02
* AAATGAGCTT | 0.986
* GGTGTTTCAT | 0.973
* TATAGGTCGA | 1.03
* TTGCTGGAAG | 0.978
* AGGTTGGGTG | 1.05
* AAGCTGGCTG | 0.945
* AATTAGGAGT | 1.06
* CTGAAACAGC | 1.06
* CTGGGTATGT | 0.959
* ATTCATTGTC | 1.09
* CTGGGATTTG | 0.997
* TTTTAAAGGG | 0.993
* GTTTTTTTTT | 1.02
* AGGGCTTTAC | 1.13
* TCGTGTACGG | 1.04
* GTTATAACCG | 0.993
* TTAGAGATTC | 0.961
* ATAAGGGAGG | 0.979
* GGTAGTATCC | 1.02
* GTTCTAGGGT | 0.974
* TGGCATATTT | 1.05
* TTGGGACGGT | 0.997
* GGTTGTGGTT | 0.998
* ATATGAACGA | 1.02
* TTACGATGTG | 1.02
* GGTGAGGGGG | 1
* AGTTCGGGAG | 0.99
* TGGTTACGCT | 1.03
* GGATAGCCGA | 0.99
* GCAGCGGGGG | 1.01
* AACCTCACTC | 1.49
* GGTGCACGGT | 0.978
* CTTAGACGTC | 0.948
* ATTAGCCCGG | 0.994
* CCAATGGGGG | 0.982
* AATGAGTGTT | 1.02
* AGAGGGATTA | 0.999
* ACAGGGGGGC | 1.06
* TACTTGAGGC | 1.11
* TAATTTAAGT | 1.01
* ATGCGAGTAT | 1.02
* CGCTTCTCTT | 1.03
* GGGTTTTAGT | 1.01
* CTTTAATGTC | 1
* GTTTCCTGGG | 1.03
* GGCCTGGGGT | 0.996
* ACTTGTTTTT | 0.99
* TATAATACGG | 1.02
* AAATTCGGGA | 0.98
* CAGGAGCTGT | 1.2
* ATGAGAATGC | 1.02
* CCGGTGTTTT | 1.06
* TCAGGATGTT | 0.987
* TCGTGGGAAG | 0.972
* GGTTAATTGG | 0.99
* CAGTGGGGGT | 1
* AGTTTATCAT | 1
* TGGTTTTGCC | 1
* CGGATCAGAA | 0.996
* GACGTGTCAA | 1.03
* ACCTCAGCTT | 1.48
* CCGTAATGTG | 1.5
* GTTGCGGTTG | 0.986
* TTGGGTCTGG | 0.965
* AACAGTTGTG | 0.976
* ACTTTCAGCC | 1.03
* TTGGATAGTT | 1.09
* GGGAACGGAA | 2.4
* CTTATGTATT | 0.993
* GTGTTAAGTA | 1.03
* CTATCTATTG | 0.992
* TTACAGGTTC | 1.03
* CGTTGGGTTC | 0.969
* TTTTGGTCGG | 0.983
